- assay-method-text: in vitro
- applied-conditions: dog
property-label: CC50 at 72 h

The measured CC50 at 72 h associated with CC1(C)C[C@H]2C3=CC[C@@H]4[C@@]5(C)CC[C@H](O)C(C)(C)[C@@H]5CC[C@@]4(C)[C@]3(C)CC[C@@]2(C(=O)O)C[C@H]1OC(=O)/C=C/c1ccccc1 reads > 100 µM

###

- Tested on: H3N2 influenza virus A/Hong Kong/68 (HK/68)
- assay-method-text: CPE inhibition assay with HK/68 in MDCK cells
- Type: cell-based
- applied-conditions: CC50 in MDCK cells / IC50 HK/68
property-label: selectivity index IAV HK/68 [CC50/IC50]
Give bare numbers.

Query C[C@H]1O[C@H](O[C@@H]2CO[C@@H](O[C@H]3CC[C@]4(C)[C@H]5CC=C6[C@@H]7CC(C)(C)[C@H](OC(=O)/C=C/c8ccccc8)C[C@]7(C(=O)O)CC[C@@]6(C)[C@]5(C)CC[C@H]4C3(C)C)[C@H](O[C@@H]3OC[C@@H](O)[C@H](O)[C@H]3O[C@H]3O[C@H](C)[C@@H](O)[C@H](O)[C@@H]3O)[C@H]2O)[C@@H](O)[C@@H](O)[C@@H]1O [Compound 8] on H3N2 influenza virus A/Hong Kong/68 (HK/68); selectivity index IAV HK/68 [CC50/IC50] returned: 7
